Please respond with reported protein stability index for every item in the list.
B1: TNNI2 (parent)
chain: DWRKNIEEKSGMEGRKKMFESES

- Variants of: B1
- test_summary: protein stability index of a GFP-peptide fusion (GPS, HEK-293T) (PSI 1-6); higher = more stable;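 further: lentivirally expressed fusions sorted by FACS into six bins by GFP to DsRed ratio, PSI derived from sequencing read proportions per bin multiplied by bin number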
- settings: c terminus: native
Give bare numbers.

Example results:
S21K :: 3.49
K4G :: 3.03

Answer for every listed entry: what is its protein stability index? The entries follow.
1. M12Y
2. E22F
3. R15I
4. E7Q
5. G14R

Output:
[2.94, 4.22, 1.71, 2.56, 2.55]
